Molecular target: Porcine pancreatic phospholipase A2 (Sus scrofa, UniProt P00592)
Construct: purchased Boehringer Mannheim·Yamanouchi K.K. 161454·122416
Sequence (P00592 23-146): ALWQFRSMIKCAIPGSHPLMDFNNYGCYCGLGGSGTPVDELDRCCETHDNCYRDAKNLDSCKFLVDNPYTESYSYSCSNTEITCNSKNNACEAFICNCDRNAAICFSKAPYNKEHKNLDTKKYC
Test: Phospholipase A2 inhibitory activity, method A (egg yolk lecithin substrate)
Type: biochemical
Settings: 1,000 ppm, 37°C for 30 minutes, read-out: % inhibition of PLA2 (1,000 ppm)
The class of a record is decided solely by its measured inhibition at 1000 ppm; consult class 1 = under 50%, class 2 = from 50% up to 60%, class 3 = 60% and over

• CS(=O)(=O)Nc1ncc(C(F)(F)F)cc1NC(=O)c1ccccc1F = class 2
• CCOC(=O)NC(=S)Nc1cc(C(F)(F)F)cnc1NS(C)(=O)=O = class 3
• CS(=O)(=O)Nc1ncc(C(F)(F)F)cc1NC(=O)C1CCCCC1 = class 3
• CCS(=O)(=O)Nc1ncc(C(F)(F)F)cc1NC(=O)C1CCCCC1 = class 3
• CS(=O)(=O)Nc1ncc(C(F)(F)F)cc1NC(=O)c1ccccc1 = class 1
• CS(=O)(=O)Nc1ncc(C(F)(F)F)cc1NC(=O)C(F)(F)Cl = class 2
• O=C(Nc1cc(C(F)(F)F)cnc1NC(=O)C(F)(F)F)C(Cl)Cl = class 1

Lab note: next molecule to report on.
Exercise: Place this molecule in its band: `CS(=O)(=O)Nc1ncc(C(F)(F)F)cc1NC(=O)c1cccc(F)c1`
Key: class 3
